Hey, just so you know, these numbers are from PubChem BioAssay (NCATS).

assay_target: Peroxisome proliferator-activated receptor alpha (Homo sapiens) (UniProt Q07869)
Sequence (Q07869 whole entry, looked up): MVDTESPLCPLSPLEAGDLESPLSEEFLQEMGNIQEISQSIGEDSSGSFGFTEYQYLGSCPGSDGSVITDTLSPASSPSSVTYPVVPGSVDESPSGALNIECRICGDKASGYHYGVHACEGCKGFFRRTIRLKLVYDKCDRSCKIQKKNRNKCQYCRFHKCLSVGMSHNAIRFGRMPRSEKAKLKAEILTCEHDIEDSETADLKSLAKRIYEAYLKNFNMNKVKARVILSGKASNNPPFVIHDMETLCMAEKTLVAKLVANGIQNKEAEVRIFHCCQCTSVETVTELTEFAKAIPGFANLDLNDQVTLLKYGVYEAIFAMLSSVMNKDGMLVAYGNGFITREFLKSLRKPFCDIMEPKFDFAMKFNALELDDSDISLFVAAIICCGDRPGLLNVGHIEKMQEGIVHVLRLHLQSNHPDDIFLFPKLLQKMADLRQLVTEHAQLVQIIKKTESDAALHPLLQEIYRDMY
protocol_details: qHTS assay for small molecule agonists of the peroxisome proliferator-activated receptor alpha (PPARalpha) signaling pathway (AID 651778); further: % of control where 0% means no effect
cond: PathHunter PPARalpha complementation, chemiluminescence, 6 h; active compounds read high
Source text: National Center for Advancing Translational Sciences [NCATS] NIH Chemical Genomics Center [NCGC] U.S. Environmental Protection Agency [EPA] National Institutes of Environmental Health Sciences [NIEHS] National Toxicology Program [NTP] The Peroxisome proliferator-activated receptors (PPARs) are lipid-activated transcription factors of the nuclear receptor superfamily with three distinct subtypes (alpha, garmma and beta/delta). […]
property_label: max response (%)
Numbers only here, please. The scale is %.

For orientation, consider the following solved cases.
Identify max response associated with the compound CN(C)c1ccc(C(=C2C=CC(=[N+](C)C)C=C2)c2ccccc2)cc1
-10.3

Identify max response associated with the compound Nc1nc2ccc([N+](=O)[O-])cc2s1
-11

New cases:
Identify max response associated with the compound CC1(C)S[C@@H]2[C@H](NC(=O)[C@H](N)c3ccccc3)C(=O)N2[C@H]1C(=O)O
-1.69

###

protocol_details: MultiTox-Fluor Cytotoxicity Assay - LYMP1-003 - Live Cells (AID 962);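 further: cells exposed to compound for 16 hours at 37 °C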
cond: LYMP1-003 lymphoblastoid cells, MultiTox-Fluor live-cell protease fluorescence; series mostly up to 92.2 µM
Activity calls are given as the source filed them. The call rests on the fitted dose curve; in most records, active means well fitted cell-killing curve with a large enough effect; inconclusive means small, poorly fitted or top-dose-only effect; inactive means flat fitted curve, though single readings scatter.
Output constraint: value belongs to class 1 = active, class 0 = inactive

Hey, what did the test say about CCCOC(=O)c1ccc(O)cc1 ?
class 0

Hey, what did the test say about N=C1N=C(N)c2cc3ccccc3cc21 ?
class 1

Hey, what did the test say about CN1CCC[C@H]1c1cccnc1 ?
class 0

Hey, what did the test say about CC(C)NCC(O)COc1cccc2ccccc12 (stereo unspecified) ?
class 0

Hey, what did the test say about C#C[C@]1(O)CC[C@H]2[C@@H]3CCc4cc(O)ccc4[C@H]3CC[C@@]21C ?
class 0

Now let's try a different one.
Hey, what did the test say about Nc1ccc(O)c([N+](=O)[O-])c1 ?
class 0

###

Tested on: CP191
protocol_details: qHTS profiling for inhibitors of Plasmodium falciparum proliferation (AID 504749); further: nearly all actives have a fitted effect of over 60% in size
cond: P. falciparum in erythrocytes, SYBR Green DNA, 72 h; series mostly up to 28.7 µM
Records with an inconclusive call do not appear. Active and inactive are the calls of the source. The call rests on the fitted dose curve; in most records, active means well fitted inhibition curve with a large enough effect; inconclusive means small, poorly fitted or top-dose-only effect; inactive means flat fitted curve, though single readings scatter.
Output constraint: value belongs to TRUE for active, FALSE for inactive

Hey, what did the test say about CN(C)c1ccc(C(=C2C=CC(=[N+](C)C)C=C2)c2ccccc2)cc1 ?
TRUE

Hey, what did the test say about [O-][n+]1ccccc1SSc1cccc[n+]1[O-] ?
TRUE

Hey, what did the test say about Nc1c(CC(=O)O)cccc1C(=O)c1ccc(Br)cc1 ?
FALSE

Now let's try a different one.
Hey, what did the test say about CCCCCCOc1ccccc1C(N)=O ?
FALSE

###

Test system: CP185
protocol_details: qHTS profiling for inhibitors of Plasmodium falciparum proliferation (AID 504749); further: nearly all actives have a fitted effect of over 60% in size
cond: P. falciparum in erythrocytes, SYBR Green DNA, 72 h; series mostly up to 28.7 µM
Records with an inconclusive call do not appear. Active and inactive are the calls of the source. Calls follow the shape of the dose curve; as a rule, active = well fitted inhibition curve with a large enough effect; inconclusive = small, poorly fitted or top-dose-only effect; inactive = flat fitted curve, though single readings scatter.
Output constraint: value belongs to active, inactive

Answered examples (5):
Hey, what did the test say about CCCCCCCCCCCCCCCC(=O)OC(C)C ?
inactive

Hey, what did the test say about CC(C(=O)O)c1ccc2c(c1)[nH]c1ccc(Cl)cc12 (stereo not drawn) ?
inactive

Hey, what did the test say about Cc1ccccc1CNc1ncnc2c1ncn2C1OC(CO)C(O)C1O (stereo not drawn) ?
inactive

Hey, what did the test say about C#C[C@]1(O)CC[C@H]2[C@@H]3CCc4cc(O)ccc4[C@H]3CC[C@@]21C ?
inactive

Hey, what did the test say about CCCCCCOc1ccccc1C(N)=O ?
inactive

New cases:
Hey, what did the test say about COc1cc(CNC(=O)CCCC/C=C/C(C)C)ccc1O ?
inactive

Hey, what did the test say about c1ccc2sc(SSc3nc4ccccc4s3)nc2c1 ?
inactive

Hey, what did the test say about O=C(OCc1ccccc1)c1ccccc1 ?
inactive

Hey, what did the test say about [O-][n+]1ccccc1SSc1cccc[n+]1[O-] ?
active

Hey, what did the test say about Nc1c(CC(=O)O)cccc1C(=O)c1ccc(Br)cc1 ?
inactive

Hey, what did the test say about Cc1nc2ccccc2n1Cc1ccc(Cl)cc1 ?
inactive

Hey, what did the test say about Nc1ccc(C(=O)O)c(O)c1 ?
inactive

###

protocol_details: qHTS of pediatric cancer cell lines to identify multiple opportunities for drug repurposing: Primary screen for TC32 cells (AID 1347089); further: on the % scale 0 is the no-effect control and ±100 the full control effect; nearly all actives have a fitted effect of over 60% in size
cond: TC32 Ewing sarcoma viability, CellTiter-Glo luminescence, 48 h; series mostly up to 45.8 µM
Inconclusive results are not listed. Active and inactive are the calls of the source. Calls follow the shape of the dose curve; as a rule, active = well fitted cell-killing curve with a large enough effect; inconclusive = small, poorly fitted or top-dose-only effect; inactive = flat fitted curve, though single readings scatter.
Output constraint: value belongs to active, inactive

Answered examples (6):
Hey, what did the test say about CCC1C(=O)OCC1Cc1cncn1C (centres undefined) ?
inactive

Hey, what did the test say about CCCCCCCCCCCC(=O)[O][Sn]([CH2]CCC)([CH2]CCC)[O]C(=O)CCCCCCCCCCC ?
inactive

Hey, what did the test say about O=c1[nH]c2ccccc2n1CCCN1CCN(C(c2ccccc2)c2ccccc2)CC1 ?
inactive

Hey, what did the test say about O=C(CCN1CCN(CCO)CC1)N1c2ccccc2Sc2ccc(C(F)(F)F)cc21 ?
inactive

Hey, what did the test say about Nc1ccc(C(=O)O)c(O)c1 ?
inactive

Hey, what did the test say about Nc1nc2ccc([N+](=O)[O-])cc2s1 ?
inactive

New cases:
Hey, what did the test say about CC(=O)SCC(CC(=O)c1ccc(C)cc1)C(=O)O (centres undefined) ?
inactive

Hey, what did the test say about Cc1cc(O)c2ccccc2c1O ?
inactive

###

protocol_details: Natriuretic polypeptide receptor (hNpr1) antagonism - Pilot counterscreen GloSensor control cell line (AID 1347045)
cond: HEK293 cGMP GloSensor cells, SNP-stimulated luminescence, 20 min; series mostly up to 38.3 µM
From the text: F. Fan, B. F. Binkowski, B. L. Butler, P. F. Stecha, M. K. Lewis, K. V. Wood, Novel genetically encoded biosensors using firefly luciferase. ACS Chem Biol 3, 346-351 (2008). PROTOCOL TABLE (as described by Inglese J, Shamu CE and Guy RK. 2007) […] 7. […] GloSensor baseline pre-read luminescence measured using CCD-based camera (Viewlux). […] 10. […] GloSensor post-SNP luminescence measured using CCD-based camera (Viewlux). […] 1. […] Cells counted with Invitrogen Countess (30,000,000 - 50,000,000 cells/flask). […]
Inconclusive results are not listed. The source made the active and inactive calls. The call rests on the fitted dose curve.
Output constraint: value belongs to class 1 (active), class 0 (inactive)

Answered examples (5):
Hey, what did the test say about O=C(O)c1cc(=O)c2c(Cl)cc(Cl)cc2[nH]1 ?
class 0

Hey, what did the test say about CCCC1(C)C(C#N)(C#N)C1(C#N)C#N ?
class 1

Hey, what did the test say about N=c1ccn2c(n1)O[C@H]1[C@H](O)[C@@H](CO)O[C@H]12 ?
class 0

Hey, what did the test say about CC(N)C(=O)OC(C)(C)Cc1ccc(Cl)cc1 (configuration not stated) ?
class 0

Hey, what did the test say about N#C/C(=C\c1c[nH]c2ccccc12)C(=O)c1ccc(O)c(O)c1 ?
class 0

New cases:
Hey, what did the test say about C[N+](C)(C)CC(=O)[O-] ?
class 0

Hey, what did the test say about CCc1c(C(=O)NCCc2ccc(N3CCCCC3)cc2)[nH]c2ccc(Cl)cc12 ?
class 0

Hey, what did the test say about O=[N+]([O-])c1ccc(CSc2ncnc3c2ncn3[C@@H]2O[C@H](CO)[C@@H](O)[C@H]2O)cc1 ?
class 0

Hey, what did the test say about C=CC(C)=C[C@@]1(C)SC(=O)C(C)=C1O ?
class 0

###

protocol_details: qHTS for differential inhibitors of proliferation of Plasmodium falciparum line GB4 (AID 1816);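 further: parasite growth measured after 72 h incubation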
cond: Plasmodium falciparum GB4 proliferation inhibition; series mostly up to 28.7 µM
Records with an inconclusive call do not appear. The source made the active and inactive calls. The call rests on the fitted dose curve; in most records, active means well fitted curve in the direction sought with a large enough effect; inconclusive means small, poorly fitted or top-dose-only effect, or another doubt; inactive means no such curve, though single readings can be large or run the other way.
Output constraint: value belongs to 1 = active, 0 = inactive

Answered examples (6):
Hey, what did the test say about Oc1cc(O)cc(/C=C/c2ccc(O)c(O)c2)c1 ?
1

Hey, what did the test say about CCCCCC(O)c1cccc(OCc2ccc3ccccc3n2)c1 (stereo unspecified) ?
1

Hey, what did the test say about CCCCCCCCCCCCCCCC(=O)OC(CC(=O)O)C[N+](C)(C)C (stereo unspecified) ?
0

Hey, what did the test say about C[C@@H](NC(=O)/C(C#N)=C/c1ccc(O)c(O)c1)c1ccccc1 ?
1

Hey, what did the test say about C[N+](C)(CCCCCC[N+](C)(C)CCCN1C(=O)c2cccc3cccc(c23)C1=O)CCCN1C(=O)c2cccc3cccc(c23)C1=O ?
1

Hey, what did the test say about CCCn1c(=O)c2[nH]c(-c3ccc(OCC(=O)NCCN)cc3)nc2n(CCC)c1=O ?
1

New cases:
Hey, what did the test say about CCCCCCCC/C=C\CCCCCCCC(=O)NCCO ?
1

Hey, what did the test say about CC1CN(S(=O)(=O)c2cccc3cnccc23)CCN1 (stereo unspecified) ?
1

Hey, what did the test say about O=C(O)/C=C/C(O)c1ccc(Cl)cc1 (stereo unspecified) ?
0

Hey, what did the test say about NCCCCCCCCCCN ?
0

Hey, what did the test say about C[C@@H](CN1CCC(Cc2ccccc2)CC1)[C@@H](O)c1ccc(O)cc1 ?
1

Hey, what did the test say about Fc1ccc(C(OCCCc2cnc[nH]2)c2ccc(F)cc2)cc1 ?
1

Hey, what did the test say about O=c1[nH]c2ccccc2n1CCCN1CCN(C(c2ccccc2)c2ccccc2)CC1 ?
1
